Assay: Total clearance in rat at 5 umol/kg, iv and 20 umol/kg, po
Assay type: ADME, organism-based
Conditions: in vivo
Exercise: state measured clearance for each of the molecules provided.
Give bare numbers, in mL/min/kg.

The examples below pair each entry with its known result.
O=c1cc([C@H]2CCN[C@@H](Cc3ccccc3)C2)o[nH]1 : 46
CC(C)(C)C[C@H]1C[C@@H](c2cc(=O)[nH]o2)CCN1 : 13

Pending molecule:
What clearance value was documented for this molecule, O=c1cc([C@H]2CCN[C@@H](CCc3ccccc3)C2)o[nH]1 ?
24

###

Experiment: Renal clearance in dog at 3 umol/kg, iv and 6 umol/kg, po
Format: ADME, organism-based, Canis lupus familiaris, Kidney
Settings: in vivo
Give CL renal for every item shown.
One number for each entry, in mL/min/kg.

Please review the following examples before continuing.
CC(C)(C)C[C@H]1C[C@@H](c2cc(=O)[nH]o2)CCN1 : 0.8
O=c1cc([C@H]2CCN[C@@H](CCc3ccccc3)C2)o[nH]1 : 0.12

# input for lookup
Consider the compound shown here: O=c1cc([C@H]2CCN[C@@H](Cc3ccccc3)C2)o[nH]1 What is its recorded CL renal?
0.2

###

Test: Drug excretion in dog urine
Format: ADME, Canis lupus familiaris
Conditions: read-out: Drug excretion
VALUE_KIND: dose excreted (%)
Answers are plain numbers, in %.

CC(C)(C)C[C@H]1C[C@@H](c2cc(=O)[nH]o2)CCN1 : 70

Endpoint output: dose excreted of O=c1cc([C@H]2CCN[C@@H](Cc3ccccc3)C2)o[nH]1 . Value?
7

###

For each record, write down the corresponding CL renal.
Assay: Renal clearance in rat at 5 umol/kg, iv and 20 umol/kg, po
Format: ADME, organism-based, Kidney
Conditions: in vivo

Guide cases for CL renal, answers given:
CC(C)(C)C[C@H]1C[C@@H](c2cc(=O)[nH]o2)CCN1 : 6 mL/min/kg
O=c1cc([C@H]2CCN[C@@H](Cc3ccccc3)C2)o[nH]1 : 11 mL/min/kg

// CL renal lookup, key: O=c1cc([C@H]2CCN[C@@H](CCc3ccccc3)C2)o[nH]1
6 mL/min/kg

###

Provide the reported bioavailability of each item.
Assay: Oral bioavailability in dog at 6 umol/kg
Type: ADME, organism-based, Canis lupus familiaris
Details: in vivo, at 6 µmol/kg
Units required after the number.

Worked set:
O=c1cc([C@H]2CCN[C@@H](CCc3ccccc3)C2)o[nH]1 : 59%
O=c1cc([C@H]2CCN[C@@H](Cc3ccccc3)C2)o[nH]1 : 73%

Switching to the query record.
Reported bioavailability, compound CC(C)(C)C[C@H]1C[C@@H](c2cc(=O)[nH]o2)CCN1 : ____
53%

###

Can you tell me microsomal CLint for the items I'm about to list?
Experiment: Metabolic stability in human liver microsomes
Type: ADME
Details: read-out: Stability

Sample answers from the record:
O=c1cc([C@H]2CCN[C@@H](Cc3ccccc3)C2)o[nH]1 : < 5 µL/min/mg
O=c1cc([C@H]2CCN[C@@H](CCc3ccccc3)C2)o[nH]1 : < 5 µL/min/mg

Here's the next entry for you.
May I ask what microsomal CLint has been recorded for CC(C)(C)C[C@H]1C[C@@H](c2cc(=O)[nH]o2)CCN1 ?
< 5 µL/min/mg

###

Would you kindly list clearance for each of these molecules?
Test: Total clearance in dog at 3 umol/kg, iv and 6 umol/kg, po
Type: ADME, organism-based, Canis lupus familiaris
Settings: in vivo

O=c1cc([C@H]2CCN[C@@H](CCc3ccccc3)C2)o[nH]1 : 1.8 mL/min/kg
O=c1cc([C@H]2CCN[C@@H](Cc3ccccc3)C2)o[nH]1 : 2.9 mL/min/kg

Now turn to the next molecule.
Quick check: clearance of CC(C)(C)C[C@H]1C[C@@H](c2cc(=O)[nH]o2)CCN1 ?
1.1 mL/min/kg
